Attribution: patent US20220324970A1

# targetOrTestSystem: T1, human pIgR extracellular domain (ECD) (human, UniProt P01833 19-638)
# T1 construct: also called hpIgR ECD
# T1 sequence (P01833 other isoform, or with tags, fused parts or gaps): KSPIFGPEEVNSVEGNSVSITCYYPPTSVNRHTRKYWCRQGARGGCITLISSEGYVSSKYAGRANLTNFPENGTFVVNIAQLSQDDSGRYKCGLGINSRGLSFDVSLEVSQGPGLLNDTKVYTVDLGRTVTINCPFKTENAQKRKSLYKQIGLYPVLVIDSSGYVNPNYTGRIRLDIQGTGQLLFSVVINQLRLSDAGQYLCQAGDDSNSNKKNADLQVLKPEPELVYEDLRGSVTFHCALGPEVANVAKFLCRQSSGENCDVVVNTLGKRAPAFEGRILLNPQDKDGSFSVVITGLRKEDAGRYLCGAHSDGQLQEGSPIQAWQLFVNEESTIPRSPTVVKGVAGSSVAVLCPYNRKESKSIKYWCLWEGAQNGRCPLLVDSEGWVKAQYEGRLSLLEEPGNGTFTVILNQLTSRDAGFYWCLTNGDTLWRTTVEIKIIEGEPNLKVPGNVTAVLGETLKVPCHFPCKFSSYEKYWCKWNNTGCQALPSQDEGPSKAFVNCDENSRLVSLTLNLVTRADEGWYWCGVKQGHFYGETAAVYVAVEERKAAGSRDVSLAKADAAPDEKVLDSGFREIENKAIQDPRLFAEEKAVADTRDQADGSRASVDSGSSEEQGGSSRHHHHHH
# assayProcedure: ECL (MSD), anti-VHH detection against anti-Fc detection
quantityName: Fold change in EC50 (fold)
Quick reminder: number only, in fold, skip the unit.

Observe how each entry below is paired with its result.
binder	Fold change in EC50, fold
VHH11-linker-mono-Fc protein (Fc fusion, made in CHO cells; also called VHH11-mono-Fc; hpIgR_250) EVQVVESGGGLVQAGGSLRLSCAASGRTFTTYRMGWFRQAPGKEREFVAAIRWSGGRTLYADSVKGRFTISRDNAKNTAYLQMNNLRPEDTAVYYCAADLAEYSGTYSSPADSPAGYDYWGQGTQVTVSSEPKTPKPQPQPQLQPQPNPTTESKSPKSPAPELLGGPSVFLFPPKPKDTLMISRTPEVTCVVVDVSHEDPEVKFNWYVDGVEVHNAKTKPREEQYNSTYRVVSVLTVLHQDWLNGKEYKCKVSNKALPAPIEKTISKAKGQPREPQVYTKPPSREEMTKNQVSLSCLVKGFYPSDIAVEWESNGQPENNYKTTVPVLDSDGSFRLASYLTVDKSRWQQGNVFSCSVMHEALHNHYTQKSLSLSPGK	3.2
VHH4-linker-mono-Fc protein (Fc fusion, also called VHH4-mono-Fc; hpIgR_073) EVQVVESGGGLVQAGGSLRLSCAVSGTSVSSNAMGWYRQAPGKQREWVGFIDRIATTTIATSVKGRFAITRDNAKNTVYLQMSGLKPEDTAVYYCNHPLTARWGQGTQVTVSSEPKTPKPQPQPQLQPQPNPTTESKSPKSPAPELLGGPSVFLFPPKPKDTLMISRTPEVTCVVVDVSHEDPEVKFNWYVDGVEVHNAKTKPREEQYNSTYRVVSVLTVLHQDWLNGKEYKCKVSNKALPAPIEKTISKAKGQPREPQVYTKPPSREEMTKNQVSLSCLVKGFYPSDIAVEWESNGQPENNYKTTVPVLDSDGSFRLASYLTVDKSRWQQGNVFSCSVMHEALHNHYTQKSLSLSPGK	180

# context switch: different binder, same Fold change in EC50
For VHH2-linker-mono-Fc protein (Fc fusion, also called VHH2-mono-Fc; mpIgR_338) EVQVVESGGGLVQAGGSLKLACAAPGLTFSSYRMGWFRQAPGQEREFVAAIDWNGRGTYYRYYADSVKGRSTISRDNAKNTVYLQMNSLKPEDTAVYYCAATTVLTDPRVLNEYATWGQGTQVTVSSEPKTPKPQPQPQLQPQPNPTTESKSPKSPAPELLGGPSVFLFPPKPKDTLMISRTPEVTCVVVDVSHEDPEVKFNWYVDGVEVHNAKTKPREEQYNSTYRVVSVLTVLHQDWLNGKEYKCKVSNKALPAPIEKTISKAKGQPREPQVYTKPPSREEMTKNQVSLSCLVKGFYPSDIAVEWESNGQPENNYKTTVPVLDSDGSFRLASYLTVDKSRWQQGNVFSCSVMHEALHNHYTQKSLSLSPGK the binder record lists Fold change in EC50 as 1
